Test system: MS2 coat protein
protocol: apparent KD of MS2 coat protein; designed switch direction (-1 OFF switch, 1 ON switch): -1; higher = weaker reporter binding
stated.conditions: Eterna round: R95; input ligand: none
Reported apparent KD of MS2 coat protein values follow for various sequences
Value and unit, in that order.

Sample records with apparent KD of MS2 coat protein:
| monomer.sequence | target.desc | measured |
| --- | --- | --- |
| GAUUAUGCGAGCUUUAGGGACAUGAGGAUCACCCAUGUUCGUCUUAUUAGUCUGAGUGCACUGACAUACCUAAAUCU [JMF 85] (puzzle: Sensor v3, turn-off variant 1) | MS2 coat protein | 16.7 nM |
| GAUUAUGCGAGCUUUAGGGACAUGAGGAUCACCCAUGUUCGUCUUAUUAGUCUAGGUGCACUAACAUACCUAAAUCU [JMF 35] (puzzle: Sensor v3, turn-off variant 1) | MS2 coat protein | 21.3 nM |
| UGGUGGAAGCAGGAUAUGCUUGUAUUAUUGAUUGCAGAAGGGCUAACAUGAGGAUCACCCAUGUAAGAGGUGUU [JR_E6_Sub056] (puzzle: Exclusion 6) | MS2 coat protein | 327 nM |
| GAUUAUGCGAGCUUUAGGGACAUGAGGAUCACCCAUGUUCGUCUUAUUAGUCUAAAUGCACUGACAUACCUAAAUCU [JMF 73] (puzzle: Sensor v3, turn-off variant 1) | MS2 coat protein | 13.9 nM |

Recorded apparent KD of MS2 coat protein of AGUACUAACACGGAUGUGUUAGUACAAUAAGCUUGUGAAACAUGAGGAUCACCCAUGUCCUCAUAAGCUCGUCUUAU [salish99_TOv2_r3_067] (puzzle: Sensor v3, turn-off variant 2) , please.
14.7 nM

###

Test system: K4 kissing-loop RNA reporter;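 further: bound reporter read as fluorescence of individual clusters on recovered sequencing chips by microscopy, with normalized cluster intensities fitted with a binding model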
protocol: apparent KD of K4 kissing-loop reporter; higher = weaker reporter binding
stated.conditions: Eterna round: R107; input ligand: arginine 13.2 mM
measure: apparent KD of K4 kissing-loop reporter (nM)
Please reply with the bare figure in nM and do not write the unit itself.

| monomer.sequence | apparent KD of K4 kissing-loop reporter [nM] |
| --- | --- |
| AUGUAUGAAUUAGGAUAUCGUUAGCCUAUCAUAUAUAUGAUAAAUGGAUAUGUCGUAGUGAUGUUACGAGAAGGAGUGUGGAGUA [KL-XFMN-B7] | 62.9 |
| CCAUUCAUUUACGAUACCAGUCUAAUAUAUUUAAUCAAAACCCUCGCCGAGUGAUGUUCGGACCCUUGGCAGCGUCUGCGAGAGG [oookmullin] | 464 |
| CGAGAAAGAGCGACUGGCGAUCUGUCUGAAGGAGCGGGUGCUAGCCCAGGUAGGUCGCAGACUUUGACGCCAGUGAUGUUGGCGG [Titidiisxe] | 175 |
| AUUAUAUAGGCGGCCGCCACUAGUGAUGUUAGUGAUGUCAUAAUAUAAUGAUAAAUUAUAUUGCGUAGGACCGGGCCUAAAUAUU [#15 K4 Tryptophan B Exclusion] | 62.3 |
| GGAGGAGAAUAUGAUACCAGCAGAGAGAGAGAGGAAGUAUAGUGAUGUUAUAUGUGAGAAUGCCCUUGGCAGCAUAAGAAGAAGG [whbob_SS_Theo_B_sa87] | 147 |

Recorded apparent KD of K4 kissing-loop reporter of ACACUAUCGUCAUAGACGGUAGUGAAAUGUGAGGAUAUGAGUGAUGUUAGAAGGCACAAAGACUGUAUCGAAUAGAUACAGUCAA [FmnA 6 #K4BetweenAptamer #OpenEnded] , please.
96.5

Please give the result for UACUUAUAGUUAUUUCUAAAUUUAUUUAGUCAGGAUAUCGAAUAGUCGAGAAGGGACAUAAUCAAGUGAUGUUUGAUUAUUCAAA [JR_SSFMNA_Sub023] too.
96.1

Please give the result for GCGCGUCAUGUCAGCGGUGACUCUGUCGAUACCAGCGCCGCAAGGCGCCCUUGGCAGCGACGCGCUGGAGUGAUGUUCCAGCGUG [#2 Exclusion - Theophylline A Attempt #13 (HarryS)] too.
142

Please give the result for CACCAUGAAUUCUCUAGGAGUGAUGUUUUUCGAGGACCGGUACGGCCGCCACUCGGACGAGGACCCUGGGAGCGGCGAAGCGGCU [nigmullin] too.
104

Please give the result for GUCUGUGUACUAGGAUAUGGUUGCAGACAGUCAGGUCGCCUUUUCGGCGGCCAGUGAUGUUGGUGGCCAGAAGGAGUACGUGAAG [Biririge] too.
1580
